System: Enterococcus faecalis (ATCC 19433)
experimental.protocol: MIC/MBC broth dilution
Format: cell-based
experimental.endpoint: M.B.C. E. faecalis

# example entries with known answers
>>> result("CC(=O)[O][Ag-][c]1n(C)c2c(c(=O)n(C)c(=O)n2C)[n+]1C1CCCCC1O (centres unmarked) [AgL2OAc]")
"> 200 µg/mL"
>>> result("CC(=O)[O][Ag-][c]1n(C)c2c(c(=O)n(C)c(=O)n2C)[n+]1CCO [AgL3OAc]")
"> 200 µg/mL"
>>> result("CC(=O)[O][Ag-][c]1n(C)c2c(c(=O)n(C)c(=O)n2C)[n+]1CC(O)c1ccccc1 (racemic) [AgL1OAc]")
"> 200 µg/mL"

Problem: Record lookup: for Enterococcus faecalis (ATCC 19433), what M.B.C. E. faecalis belongs to Cn1c(=O)c2c(n(C)[c]([Au-][I])[n+]2C2CCCCC2O)n(C)c1=O (centres unmarked) [AuL2] ?
Result: > 200 µg/mL

Problem: Would you mind doing Cn1c(=O)c2c(n(C)[c]([Au-][I])[n+]2CC(O)c2ccccc2)n(C)c1=O (racemic) [AuL1] as well?
Result: > 200 µg/mL

====

Tested on: Pseudomonas aeruginosa (ATCC 15442)
experimental.protocol: MIC/MBC broth dilution
Format: cell-based
experimental.endpoint: M.I.C. P. aeruginosa (µg/mL)
Give just the numeric value; µg/mL need not be written.

>>> recorded_number("Cn1c(=O)c2c(n(C)[c]([Au-][I])[n+]2C2CCCCC2O)n(C)c1=O (stereo not drawn)")
100
>>> recorded_number("CC(=O)[O][Ag-][c]1n(C)c2c(c(=O)n(C)c(=O)n2C)[n+]1C1CCCCC1O (stereo not drawn)")
100

Kindly consider the entry below.
Problem: Record lookup: for Pseudomonas aeruginosa (ATCC 15442), what M.I.C. P. aeruginosa belongs to Cn1c(=O)c2c(n(C)[c]([Au-][I])[n+]2CC(O)c2ccccc2)n(C)c1=O (racemic) ?
Result: 100

====

Test system: Pseudomonas aeruginosa (ATCC 15442)
experimental.protocol: MIC/MBC broth dilution
Type: cell-based
Entries and their M.B.C. P. aeruginosa values follow.

>>> result("Cn1c(=O)c2c(n(C)[c]([Au-][I])[n+]2C2CCCCC2O)n(C)c1=O (centres unmarked)")
"> 125 µg/mL"
>>> result("Cn1c(=O)c2c(n(C)[c]([Au-][I])[n+]2CC(O)c2ccccc2)n(C)c1=O (racemic)")
"> 125 µg/mL"
>>> result("CC(=O)[O][Ag-][c]1n(C)c2c(c(=O)n(C)c(=O)n2C)[n+]1C1CCCCC1O (centres unmarked)")
"> 125 µg/mL"
>>> result("CC(=O)[O][Ag-][c]1n(C)c2c(c(=O)n(C)c(=O)n2C)[n+]1CC(O)c1ccccc1 (racemic)")
"> 150 µg/mL"

Kindly consider the entry below.
Problem: Record lookup: for Pseudomonas aeruginosa (ATCC 15442), what M.B.C. P. aeruginosa belongs to CC(=O)[O][Ag-][c]1n(C)c2c(c(=O)n(C)c(=O)n2C)[n+]1CCO ?
Result: > 200 µg/mL

====

Test system: Klebsiella pneumoniae (ATCC 13883)
experimental.protocol: MIC/MBC broth dilution
Type: cell-based
Entries and their M.I.C. K. pneumoniae values follow.
Give just the numeric value; µg/mL need not be written.

# example entries with known answers
>>> recorded_number("Cn1c(=O)c2c(n(C)[c]([Au-][I])[n+]2CC(O)c2ccccc2)n(C)c1=O (racemic)")
150
>>> recorded_number("Cn1c(=O)c2c(n(C)[c]([Au-][I])[n+]2C2CCCCC2O)n(C)c1=O (centres unmarked)")
150
>>> recorded_number("CC(=O)[O][Ag-][c]1n(C)c2c(c(=O)n(C)c(=O)n2C)[n+]1CC(O)c1ccccc1 (racemic)")
125
>>> recorded_number("CC(=O)[O][Ag-][c]1n(C)c2c(c(=O)n(C)c(=O)n2C)[n+]1CCO")
150

Kindly consider the entry below.
Problem: Query: M.I.C. K. pneumoniae; subject: CC(=O)[O][Ag-][c]1n(C)c2c(c(=O)n(C)c(=O)n2C)[n+]1C1CCCCC1O (centres unmarked)
Result: 125

====

System: Escherichia coli (ATCC 25922)
experimental.protocol: MIC/MBC broth dilution
Type: cell-based
experimental.endpoint: M.I.C. E. coli (µg/mL)
Give just the numeric value; µg/mL need not be written.

# example entries with known answers
>>> recorded_number("Cn1c(=O)c2c(n(C)[c]([Au-][I])[n+]2C2CCCCC2O)n(C)c1=O (stereo not drawn)")
150
>>> recorded_number("CC(=O)[O][Ag-][c]1n(C)c2c(c(=O)n(C)c(=O)n2C)[n+]1C1CCCCC1O (stereo not drawn)")
100

Kindly consider the entry below.
Problem: Record lookup: for Escherichia coli (ATCC 25922), what M.I.C. E. coli belongs to Cn1c(=O)c2c(n(C)[c]([Au-][I])[n+]2CC(O)c2ccccc2)n(C)c1=O (racemic) ?
Result: 150

====

Test system: Staphylococcus aureus (ATCC 23235)
experimental.protocol: MIC/MBC broth dilution
Format: cell-based
Entries and their M.I.C. S. aureus values follow.
Give just the numeric value; µg/mL need not be written.

>>> recorded_number("Cn1c(=O)c2c(n(C)[c]([Au-][I])[n+]2CC(O)c2ccccc2)n(C)c1=O (racemic)")
150

Kindly consider the entry below.
Problem: Query: M.I.C. S. aureus; subject: CC(=O)[O][Ag-][c]1n(C)c2c(c(=O)n(C)c(=O)n2C)[n+]1C1CCCCC1O (stereo not shown)
Result: 100

====

Test system: Enterococcus faecalis (ATCC 19433)
experimental.protocol: MIC/MBC broth dilution
Assay type: cell-based
experimental.endpoint: M.I.C. E. faecalis

# example entries with known answers
>>> result("CC(=O)[O][Ag-][c]1n(C)c2c(c(=O)n(C)c(=O)n2C)[n+]1CC(O)c1ccccc1 (racemic) [AgL1OAc]")
"150 µg/mL"
>>> result("Cn1c(=O)c2c(n(C)[c]([Au-][I])[n+]2CCO)n(C)c1=O [AuL3]")
">200 µg/mL"
>>> result("Cn1c(=O)c2c(ncn2C)n(C)c1=O [Caffeine, 1,3,7-trimethylxanthine, reference compound]")
">200 µg/mL"
>>> result("CC(=O)[O][Ag-][c]1n(C)c2c(c(=O)n(C)c(=O)n2C)[n+]1C1CCCCC1O (centres unmarked) [AgL2OAc]")
"150 µg/mL"

Problem: Query: M.I.C. E. faecalis; subject: Cn1c(=O)c2c(n(C)[c]([Au-][I])[n+]2CC(O)c2ccccc2)n(C)c1=O (racemic) [AuL1]
Result: 150 µg/mL

Problem: Would you mind doing Cn1c(=O)c2c(n(C)[c]([Au-][I])[n+]2C2CCCCC2O)n(C)c1=O (centres unmarked) [AuL2] as well?
Result: 150 µg/mL

Problem: Would you mind doing CC(=O)[O][Ag-][c]1n(C)c2c(c(=O)n(C)c(=O)n2C)[n+]1CCO [AgL3OAc] as well?
Result: 150 µg/mL

Problem: Would you mind doing Cn1c(=O)c2[nH]cnc2n(C)c1=O [Theophylline, reference compound] as well?
Result: >200 µg/mL

====

Test system: MDA-MB-231
experimental.protocol: MTT cell viability assay
Type: cell-based, human
condition.notes: 72 h
experimental.endpoint: pIC50
Here pIC50 is given on a logarithmic scale as minus log10 of the concentration in mol/L.

>>> recorded_number("N.N.[Cl][Pt][Cl] [Cisplatin, reference compound]")
4.49
>>> recorded_number("CC(=O)[O][Ag-][c]1n(C)c2c(c(=O)n(C)c(=O)n2C)[n+]1C1CCCCC1O (stereo not shown) [AgL2OAc]")
4.71
>>> recorded_number("CC(=O)[O][Ag-][c]1n(C)c2c(c(=O)n(C)c(=O)n2C)[n+]1CC(O)c1ccccc1 (racemic) [AgL1OAc]")
4.49

Kindly consider the entry below.
Problem: Query: pIC50; subject: Cn1c(=O)c2c(n(C)[c]([Au-][I])[n+]2CC(O)c2ccccc2)n(C)c1=O (racemic) [AuL1]
Result: 4.83

====

Entries and their pIC50 values follow.
experimental.protocol: ABTS radical scavenging assay
Type: biochemical
Here pIC50 is given on a logarithmic scale as minus log10 of the concentration in mol/L.

# example entries with known answers
>>> recorded_number("Cn1c(=O)c2c(n(C)[c]([Au-][I])[n+]2C2CCCCC2O)n(C)c1=O (stereo not drawn)")
3.81
>>> recorded_number("Cn1c(=O)c2c(n(C)[c]([Au-][I])[n+]2CC(O)c2ccccc2)n(C)c1=O (racemic)")
3.79

Problem: Query: pIC50; subject: CC(=O)[O][Ag-][c]1n(C)c2c(c(=O)n(C)c(=O)n2C)[n+]1CC(O)c1ccccc1 (racemic)
Result: 3.83

Problem: Would you mind doing Cc1c(C)c2c(c(C)c1O)CCC(C)(C(=O)O)O2 (stereo not drawn) [Trolox, reference compound] as well?
Result: 4.26

Problem: Would you mind doing CC(=O)[O][Ag-][c]1n(C)c2c(c(=O)n(C)c(=O)n2C)[n+]1C1CCCCC1O (stereo not drawn) as well?
Result: 3.84

Where do the numbers come from? From paper PMC10931745.
